- Tested on: HS 578T breast
- ASSAY_SUMMARY: NCI tumour cell line growth inhibition, 48 h; in the data active = GI50 below about 0.43 µM; inactive = the rest
Could you please pick one outcome from this set? 1 (active), -1 (inactive)

Dear all, I need the recorded test outcome for O=C(/C=C/c1cccnc1)/C=C/c1cccnc1 , thank you.
-1

***
Dear all, I need the recorded test outcome for CCCCCCCCCCCCCCCc1ccc(C(=O)C[n+]2ccccc2)cc1 , thank you.
-1

Then COc1cc2nc(-c3ccc(Cl)cc3)cc(OCCCN3CCC(O)CC3)c2cc1OC ?
-1

Then COc1cc2c(c(Br)c1N)-c1cc(Br)c(N)cc1C2=O ?
-1

Then COc1cc2c(cc1OCCCN1CCN(CCCOc3cc4c(cc3OC)C(=O)C3CCC[C@H]3C=N4)CC1)N=C[C@@H]1CCCC1C2=O (stereo not given in full) ?
-1

Then COc1cc(-c2cn(-c3ccc(Cl)cc3)c(=O)n2-c2ccccc2)cc(OC)c1OC ?
-1

Then NCCCNCCCNc1nc2ccccc2c2[nH]c3ccccc3c12 ?
1

Then c1ccc(COc2ccc(Nc3ncnc4ccc(-c5ccco5)cc34)cc2)cc1 ?
-1

Then C=C(CNCCc1ccc(O)cc1)[C@@H]1CC[C@]2(CO)CC[C@]3(C)[C@H](CC[C@@H]4[C@@]5(C)CCC(NCCO)C(C)(C)[C@@H]5CC[C@]43C)[C@@H]12 (stereo not given in full) ?
-1

Then Cn1cccc1C1CC(=O)N(CCC[Se]C#N)C1=O (stereo not given) ?
-1
